Experiment: folding stability dG unfold from chymotrypsin proteolysis; higher = more stable
Readout kind: folding stability dG unfold (kcal/mol)
Number in kcal/mol, nothing else.

State the recorded folding stability dG unfold for this entry: SAGGSAEIEVTVYYDPETGEILVLINFPDETKFEVAVEEFKKLFEKVEAVKLPDGSVLVRSPLKDASAGGSA [r15_1057_TrMRF] 1.7

State the recorded folding stability dG unfold for this entry: KTRHIPIRDALDEAEELIDEGPRMVKITIYNNNGQKHEIETLKDILDKLKSNFPGMPPDNMKVQVEVIPPPS [r1_325_TrROS] -0.0938

State the recorded folding stability dG unfold for this entry: SAGGSAKPVMVRIKFPNMPPEKLQDAFQEYGMQPQNMDPNKGEMIIMIPWEAAEEIQDKNGFKIEISAGGSA [r15_731_TrROS] 0.8

State the recorded folding stability dG unfold for this entry: SAGGMKIVSIEYDKENKKITIKVEAPPGVSAEELAKKIKELAKELFGKEIEIEVKVEKVEFFEPEEESAGGS [r8_314_TrROS_Hall] 3.12

State the recorded folding stability dG unfold for this entry: SAGGSAGGSDDTAEFEGPVNVTLTLDGKPVNINAWVTRLPPGWFRIVLPDGVIELPGGNLRVGSAGGSAGGS [r12_790_TrMRF] 1.31

State the recorded folding stability dG unfold for this entry: SAGGSAGGSAGPTITYHPDGRVRIDLHLPNGELLDTGVITPDEAVRLLLETGVRLRTIRPSAGGSAGGSAGG [r11_521_TrMRF] 0.662

State the recorded folding stability dG unfold for this entry: SAGGSAIEIEPAPDNVLVVTADLPPNVPAEKLVEALKDLIPDVEFETSSSADGRHVIVLRLPPDVFSAGGSA [r15_1047_TrMRF] 0.961

State the recorded folding stability dG unfold for this entry: SAGGGHMVNVTLTGSSIEEIKKELEELAKKYGFVINPKKVEKLPGPKYKITLNIKAPDEVVELIKKKSAGGS [r8_357_JUSTAS] 2.16

State the recorded folding stability dG unfold for this entry: SMAKVTGYPDIFLVTIYKDGEEKTIPVNFEELVELLKKGVKKVEFTTDNPEFAEKFYKLVKSLGVPVNLKSA [r9_810_TrMRF] 2.7

State the recorded folding stability dG unfold for this entry: SAGGSARVVILPDGYLLVEVDGKPFLFGPNDEVEIEEEGDELILRLRLRDKDGKEVGEFPFRFRLESAGGSA [r15_424_TrMRF] 3.03

State the recorded folding stability dG unfold for this entry: SAGKDGDPPKRVRIKFKIPLPGGKLYEVTQTFYPNGSVHVSIRFPNGWMLSAWIPPDGDIEIKIMPIKKSAG [r5_168_TrROS] 4.3

State the recorded folding stability dG unfold for this entry: SEVVDTFSPPVTGSGEPRDFEIRLIKDENGNPVSVTMFDPVTGVEYPPDVSLEDLGVPPPVVEAFEAARRSS [r1_354_JUSTAS] 0.0636

State the recorded folding stability dG unfold for this entry: SGKDTLILELVLEVDSEEQAQAIRDIFEALGYKVEVRVFPLPDGLIVFVRVEVPVPPPPPSLEDPELLAKSA [r9_863_TrMRF] 2.75

State the recorded folding stability dG unfold for this entry: SAGGIWIPVPNADWAVDFIIEFIDQFGPGAKIDKITVYNGGKEREITPGEPPKIPPGSWFEIDLEPKSAGGS [r16_267_TrROS] 1.15

Sourced from the supplement of paper PMC12764529
